biological target: Bromodomain adjacent to zinc finger domain protein 2B (Homo sapiens) (UniProt Q9UIF8); experiment: qHTS Assay for Inhibitors of BAZ2B; settings: AlphaScreen BAZ2B-H3K14Ac peptide displacement; series mostly up to 114 µM; further: nearly all actives have a fitted effect of over 60% in size
Sequence (Q9UIF8 whole entry, looked up, the tested form may be a part): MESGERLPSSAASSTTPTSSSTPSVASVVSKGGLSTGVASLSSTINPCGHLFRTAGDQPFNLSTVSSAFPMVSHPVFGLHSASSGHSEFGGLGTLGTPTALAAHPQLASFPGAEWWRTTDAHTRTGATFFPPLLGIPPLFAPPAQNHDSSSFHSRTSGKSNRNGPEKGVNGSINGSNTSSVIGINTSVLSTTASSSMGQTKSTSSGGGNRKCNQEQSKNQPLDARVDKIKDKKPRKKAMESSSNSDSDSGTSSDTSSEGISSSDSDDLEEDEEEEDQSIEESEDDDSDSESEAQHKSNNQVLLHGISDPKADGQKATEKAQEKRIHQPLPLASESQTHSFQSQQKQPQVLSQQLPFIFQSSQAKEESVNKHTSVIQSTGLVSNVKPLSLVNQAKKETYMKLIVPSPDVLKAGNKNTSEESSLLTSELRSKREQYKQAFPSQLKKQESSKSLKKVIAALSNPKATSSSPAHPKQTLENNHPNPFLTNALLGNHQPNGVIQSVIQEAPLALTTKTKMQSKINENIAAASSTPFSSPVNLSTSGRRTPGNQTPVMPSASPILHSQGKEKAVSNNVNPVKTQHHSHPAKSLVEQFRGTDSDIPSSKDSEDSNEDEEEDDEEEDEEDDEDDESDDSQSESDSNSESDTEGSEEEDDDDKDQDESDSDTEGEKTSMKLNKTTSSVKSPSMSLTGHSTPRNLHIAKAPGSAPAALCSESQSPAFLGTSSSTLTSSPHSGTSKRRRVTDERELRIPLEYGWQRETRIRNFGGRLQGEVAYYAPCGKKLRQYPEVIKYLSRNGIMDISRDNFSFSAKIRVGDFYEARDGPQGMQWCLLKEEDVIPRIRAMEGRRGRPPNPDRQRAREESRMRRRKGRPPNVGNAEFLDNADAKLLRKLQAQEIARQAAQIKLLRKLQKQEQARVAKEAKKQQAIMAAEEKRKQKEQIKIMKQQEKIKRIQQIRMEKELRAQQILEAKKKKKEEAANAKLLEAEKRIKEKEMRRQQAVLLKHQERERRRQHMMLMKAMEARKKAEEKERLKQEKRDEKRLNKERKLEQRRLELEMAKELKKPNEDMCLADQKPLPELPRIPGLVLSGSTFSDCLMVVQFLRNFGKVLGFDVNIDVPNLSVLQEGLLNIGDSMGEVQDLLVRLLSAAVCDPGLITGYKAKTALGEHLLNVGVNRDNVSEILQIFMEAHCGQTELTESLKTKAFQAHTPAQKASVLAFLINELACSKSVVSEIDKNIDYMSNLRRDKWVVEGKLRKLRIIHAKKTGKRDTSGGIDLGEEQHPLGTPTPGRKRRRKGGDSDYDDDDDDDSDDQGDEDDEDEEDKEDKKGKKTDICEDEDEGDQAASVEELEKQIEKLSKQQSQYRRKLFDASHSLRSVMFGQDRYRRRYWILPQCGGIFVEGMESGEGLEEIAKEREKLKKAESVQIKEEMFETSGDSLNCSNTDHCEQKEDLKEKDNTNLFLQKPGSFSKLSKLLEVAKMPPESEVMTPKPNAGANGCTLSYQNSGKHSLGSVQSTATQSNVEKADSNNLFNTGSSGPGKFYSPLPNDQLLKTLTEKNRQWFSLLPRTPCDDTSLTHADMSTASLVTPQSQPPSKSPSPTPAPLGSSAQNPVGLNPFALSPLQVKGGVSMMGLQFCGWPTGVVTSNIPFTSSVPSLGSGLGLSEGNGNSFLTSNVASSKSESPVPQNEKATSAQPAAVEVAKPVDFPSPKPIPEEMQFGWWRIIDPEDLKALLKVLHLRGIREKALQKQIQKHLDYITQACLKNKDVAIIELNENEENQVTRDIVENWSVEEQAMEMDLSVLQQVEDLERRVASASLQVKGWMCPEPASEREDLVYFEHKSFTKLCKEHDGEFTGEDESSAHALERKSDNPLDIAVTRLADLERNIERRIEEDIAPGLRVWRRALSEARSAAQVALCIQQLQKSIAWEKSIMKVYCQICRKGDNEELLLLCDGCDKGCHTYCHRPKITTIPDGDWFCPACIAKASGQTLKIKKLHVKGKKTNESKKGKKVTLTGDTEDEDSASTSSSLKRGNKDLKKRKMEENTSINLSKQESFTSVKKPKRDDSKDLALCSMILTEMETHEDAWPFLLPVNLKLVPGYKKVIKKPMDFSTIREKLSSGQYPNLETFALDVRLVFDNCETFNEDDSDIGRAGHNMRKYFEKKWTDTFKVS
The whole screen tested about 360,000 compounds, of which about 16,000 (4.4%) were called active. Not shown: some 9% with an inconclusive outcome. The call rests on the fitted dose curve; in most records, active means well fitted inhibition curve with a large enough effect; inconclusive means small, poorly fitted or top-dose-only effect; inactive means no such curve, though single readings can be large or run the other way. This excerpt belongs to a sample that is enriched for actives.
Possible outcomes: True = active, False = inactive

- compound: "COc1cc(OC)c(C(=O)Nc2ccc(N(C)C)cc2)cc1OC"
  tested_system: "Bromodomain adjacent to zinc finger domain protein 2B (Homo sapiens) (UniProt Q9UIF8)"
  group_label: "True"
- compound: "COc1ccc(N2CCN(C(=O)/C(C#N)=C/c3ccccc3)CC2)cc1"
  tested_system: "Bromodomain adjacent to zinc finger domain protein 2B (Homo sapiens) (UniProt Q9UIF8)"
  group_label: "True"
- compound: "Cc1ccc(NC(=O)C2CCN(S(=O)(=O)c3cc(-c4noc(C)n4)ccc3C)CC2)c(C)c1"
  tested_system: "Bromodomain adjacent to zinc finger domain protein 2B (Homo sapiens) (UniProt Q9UIF8)"
  group_label: "False"
- compound: "CCCCCC(=O)Nc1ccc(S(=O)(=O)Nc2ccc(Cl)nn2)cc1"
  tested_system: "Bromodomain adjacent to zinc finger domain protein 2B (Homo sapiens) (UniProt Q9UIF8)"
  group_label: "False"
- compound: "COc1ccc(CNC(=O)c2cc3c(=O)[nH]c4ccc(C)cc4c3s2)c(OC)c1"
  tested_system: "Bromodomain adjacent to zinc finger domain protein 2B (Homo sapiens) (UniProt Q9UIF8)"
  group_label: "False"
- compound: "COc1ccc(OC)c(-c2noc(N3CCN(c4cc(Cl)ccc4C)CC3)n2)c1"
  tested_system: "Bromodomain adjacent to zinc finger domain protein 2B (Homo sapiens) (UniProt Q9UIF8)"
  group_label: "False"
- compound: "COc1cc(OC)c(C(=O)Nc2ccccc2-c2ccccc2)cc1OC"
  tested_system: "Bromodomain adjacent to zinc finger domain protein 2B (Homo sapiens) (UniProt Q9UIF8)"
  group_label: "False"
- compound: "COc1ccc(NC(=O)c2sc(N)nc2-c2ccccc2)cc1"
  tested_system: "Bromodomain adjacent to zinc finger domain protein 2B (Homo sapiens) (UniProt Q9UIF8)"
  group_label: "False"
- compound: "Cc1nnc(SCC(=O)Nc2ccc(S(=O)(=O)Nc3ccc(Cl)nn3)cc2)s1"
  tested_system: "Bromodomain adjacent to zinc finger domain protein 2B (Homo sapiens) (UniProt Q9UIF8)"
  group_label: "True"
- compound: "O=C(CN1CCCC1)N1CCN(c2ccccc2)CC1"
  tested_system: "Bromodomain adjacent to zinc finger domain protein 2B (Homo sapiens) (UniProt Q9UIF8)"
  group_label: "False"
- compound: "NC(=O)CSc1c[nH]c2ccccc12"
  tested_system: "Bromodomain adjacent to zinc finger domain protein 2B (Homo sapiens) (UniProt Q9UIF8)"
  group_label: "False"
- compound: "O=C(N/N=C/c1ccc(Br)o1)c1cncc(Br)c1"
  tested_system: "Bromodomain adjacent to zinc finger domain protein 2B (Homo sapiens) (UniProt Q9UIF8)"
  group_label: "False"
- compound: "CC(CC(=O)N1CCN(c2ccccc2)CC1)c1ccccc1 (configuration not stated)"
  tested_system: "Bromodomain adjacent to zinc finger domain protein 2B (Homo sapiens) (UniProt Q9UIF8)"
  group_label: "False"
- compound: "COCCCNC(=O)Cn1cc(/C=C(\\C#N)C(=O)N2CCN(c3ccccc3)CC2)c2ccccc21"
  tested_system: "Bromodomain adjacent to zinc finger domain protein 2B (Homo sapiens) (UniProt Q9UIF8)"
  group_label: "False"
- compound: "COc1cccc(NC(=O)c2ccc3nc(CCc4ccccc4)oc3c2)c1"
  tested_system: "Bromodomain adjacent to zinc finger domain protein 2B (Homo sapiens) (UniProt Q9UIF8)"
  group_label: "False"
- compound: "Cc1ccc(C(=O)N/N=C\\c2cc(Br)c(Br)o2)cn1"
  tested_system: "Bromodomain adjacent to zinc finger domain protein 2B (Homo sapiens) (UniProt Q9UIF8)"
  group_label: "True"
- compound: "COc1ccc(Cn2ccc3nc(C)c(C(=O)Nc4ccc(C)c(F)c4)cc3c2=O)cc1"
  tested_system: "Bromodomain adjacent to zinc finger domain protein 2B (Homo sapiens) (UniProt Q9UIF8)"
  group_label: "False"
- compound: "CCCCNC(=O)C1CCCN(c2nnc(C)c3c(C)n(-c4ccc(Cl)cc4)nc23)C1 (configuration not stated)"
  tested_system: "Bromodomain adjacent to zinc finger domain protein 2B (Homo sapiens) (UniProt Q9UIF8)"
  group_label: "False"
- compound: "COc1ccc(-c2noc(CSc3nc(C)cc(=O)[nH]3)n2)cc1OC"
  tested_system: "Bromodomain adjacent to zinc finger domain protein 2B (Homo sapiens) (UniProt Q9UIF8)"
  group_label: "False"
- compound: "Cc1ccc(-n2c(C)cc(/C=N\\NC(=O)CC(=O)NC(C)C)c2C)cc1"
  tested_system: "Bromodomain adjacent to zinc finger domain protein 2B (Homo sapiens) (UniProt Q9UIF8)"
  group_label: "False"
- compound: "Cc1ccc(-c2cn3c(n2)sc2cc(C(=O)NCc4cccs4)ccc23)c(C)c1"
  tested_system: "Bromodomain adjacent to zinc finger domain protein 2B (Homo sapiens) (UniProt Q9UIF8)"
  group_label: "False"
- compound: "CCOC(=O)/C(C#N)=C/c1ccc(N2CCN(Cc3ccccc3)CC2)cc1"
  tested_system: "Bromodomain adjacent to zinc finger domain protein 2B (Homo sapiens) (UniProt Q9UIF8)"
  group_label: "False"

====

target: Bromodomain adjacent to zinc finger domain protein 2B (Homo sapiens); assay: qHTS Assay for Inhibitors of BAZ2B; conditions: AlphaScreen BAZ2B-H3K14Ac peptide displacement; series mostly up to 114 µM; further: nearly all actives have a fitted effect of over 60% in size; further: potency means the concentration at half of the fitted maximal effect
About 16,000 (4.4%) of roughly 360,000 compounds were called active. Another 9% or so got no clear call; they are omitted. Many of the other results were omitted from the sample, so actives are more common in it than they were.

- molecule: "O=C(c1cccs1)N(C(=O)c1cccs1)c1ccccn1"
  Potency: "inactive"
- molecule: "O=C(C1=C(O)C(=O)N(CCOCCO)C1c1ccccn1)c1cccs1 (stereo unspecified)"
  Potency: "50.1 µM (active)"
- molecule: "CC(=O)Nc1ccc(Nc2cc(C)nc(Nc3ccc(NC(C)=O)cc3)n2)cc1"
  Potency: "56.2 µM (active)"
- molecule: "CCOCCCNC(=O)c1ccc2nc(CCc3ccccc3)oc2c1"
  Potency: "inactive"
- molecule: "Cc1ccc(Nc2nc(C)cc(C)c2C(N)=O)cc1"
  Potency: "inactive"
- molecule: "O=C(c1cccs1)c1cn(CCOc2ccc(Cl)cc2)c2ccccc12"
  Potency: "inactive"

====

Molecular target: Bromodomain adjacent to zinc finger domain protein 2B (Homo sapiens)
Assay: qHTS Assay for Inhibitors of BAZ2B; further: nearly all actives have a fitted effect of over 60% in size
Conditions: AlphaScreen BAZ2B-H3K14Ac peptide displacement; series mostly up to 114 µM
Description: BAZ2B (bromodomain adjacent to zinc finger domain, 2B) belongs to a family of ubiquitously expressed bromodomain containing proteins, which biological function has not yet been elucidated. […] Yasgar, et al. Compound Management for Quantitative High-Throughput Screening. […] Inglese, et al. Quantitative high-throughput screening: a titration-based approach that efficiently identifies biological activities in large chemical libraries. […]
Out of some 360,000 compounds screened, about 16,000 (4.4%) were called active. Another 9% or so got no clear call; they are omitted. Shown is part of a subset that was picked to be rich in actives.

- mol: "Cc1ccccc1NC(=O)CN1C(=O)C(C)(C)c2ccccc21"
  outcome: "inactive"
- mol: "CCCCN1C(=O)/C(=C2/Sc3ccc(Cl)cc3N2CC)SC1=S"
  outcome: "inactive"
- mol: "CCOC(=O)Cn1c(=O)n(-c2ccccc2OC)c2nc(-c3cccc(F)c3)nc(C(N)=O)c21"
  outcome: "inactive"
- mol: "O=C1N/C(=C/c2cccn2-c2ccccc2)C(=O)N1c1cccc(Cl)c1"
  outcome: "inactive"
- mol: "COc1ccc(-c2nc3sc(CCNS(=O)(=O)c4ccc(F)c(C)c4)c(C)n3n2)cc1"
  outcome: "inactive"
- mol: "COc1ccc(N2CCN(Cc3nnc(-c4ccccc4)o3)CC2)cc1"
  outcome: "inactive"

====

biological target: Bromodomain adjacent to zinc finger domain protein 2B (Homo sapiens); assay: qHTS Assay for Inhibitors of BAZ2B; details: AlphaScreen BAZ2B-H3K14Ac peptide displacement; series mostly up to 114 µM; further: nearly all actives have a fitted effect of over 60% in size
About 16,000 (4.4%) of roughly 360,000 compounds were called active. Not shown: some 9% with an inconclusive outcome. Calls follow the shape of the dose curve; as a rule, active = well fitted inhibition curve with a large enough effect; inconclusive = small, poorly fitted or top-dose-only effect; inactive = no such curve, though single readings can be large or run the other way. The list comes from a sample in which actives are over-represented; it also holds close analogues and randomly drawn compounds.
Outcomes: active, inactive

- molecule: "COc1ccc(OC)c(-c2nc(C(N)=O)c3c(n2)n(-c2ccc4c(c2)OCO4)c(=O)n3C)c1"
  group_label: "inactive"
- molecule: "COc1ccc(C)cc1Nc1nc(-c2c(C)[nH]c3ccccc23)cs1"
  group_label: "active"
- molecule: "Cc1ccc(CNC(=O)CCc2c(C)nc3nc(CNC(=O)OC(C)(C)C)nn3c2C)cc1"
  group_label: "inactive"
- molecule: "CCCCCn1c(=O)[nH]c2cc(C(=O)Nc3ccc(F)cc3)ccc2c1=O"
  group_label: "inactive"
- molecule: "Cc1ccc(-n2cnc3cc(C(=O)NCCC4=CCCCC4)ccc32)cc1Cl"
  group_label: "inactive"
- molecule: "COc1ccc2c(CNCCc3ccccc3C)c(C(=O)O)n(Cc3ccccc3C)c2c1"
  group_label: "inactive"
- molecule: "COc1ccc(C)cc1Nc1nc(C)nc2c1oc1ccccc12"
  group_label: "inactive"
- molecule: "CSc1nc2ccc(S(=O)(=O)N3CCc4ccccc43)cc2s1"
  group_label: "inactive"
- molecule: "COC(=O)c1cnc(Nc2cc(C)ccc2OC)c2ccccc12"
  group_label: "inactive"
- molecule: "Cc1ccc(OCc2n[nH]c(=S)n2-c2ccccc2)cc1"
  group_label: "inactive"
- molecule: "CCOC(=O)C1CCCN(C(=O)c2ccc3c(c2)sc2nc(-c4ccc(CC)cc4)cn23)C1 (stereo unspecified)"
  group_label: "inactive"
- molecule: "Cc1ccc(Cl)cc1-n1ncc2c(N3CCC(C(N)=O)CC3)ncnc21"
  group_label: "inactive"
- molecule: "O=C(CSc1ncc(S(=O)(=O)c2ccc(Br)cc2)c(=O)[nH]1)Nc1ccc2c(c1)OCCO2"
  group_label: "inactive"
- molecule: "CN(C)CCCN(C(=O)c1ccc(S(=O)(=O)N2CCCCCC2)cc1)c1nc2ccc(Br)cc2s1"
  group_label: "active"
- molecule: "Cc1ccccc1CNC(=O)CCCn1nc(C)c2sc3ccccc3c2c1=O"
  group_label: "inactive"
- molecule: "COc1ccc(OCc2n[nH]c(=S)n2N)cc1"
  group_label: "active"
- molecule: "COc1ccc(Cn2ccn(Cc3cccc(OC)c3)c(=O)c2=O)cc1"
  group_label: "inactive"
- molecule: "Cc1oc2ncnc(N3CCOCC3)c2c1C(=O)NCCc1ccccc1"
  group_label: "inactive"
- molecule: "CN(C)CCCN(C(=O)c1ccc(S(=O)(=O)N2CCCc3ccccc32)cc1)c1nc2ccc(F)cc2s1"
  group_label: "active"
- molecule: "Cc1nc2nc(SCC(=O)N(Cc3ccccc3)C(C)C)nn2c(C)c1Cc1ccccc1Cl"
  group_label: "inactive"
- molecule: "O=c1oc2c(CN3CCCCC3)c(O)ccc2c2c1CCCCC2"
  group_label: "inactive"
